MEASUREMENT NOTES: Aqueous solubility of compound in phosphate buffered saline at pH 7.4 incubated for 10 min by RP-HPLC analysis
Type: physicochemical
Entries and their measured solubility at 10 min follow.
PROPERTY: solubility at 10 min (µg/mL)

- CHEMICAL SMILES: "O=C(O)CCCCn1nnc(Cc2cn(Cc3ccc(Cl)cc3Cl)c3ccc(F)cc23)n1"
  UOM: "µg/mL"
  INEQUALITY OPERATOR: "="
  RECORDED NUMBER: 74
- CHEMICAL SMILES: "Cc1c(CCOc2ccc(C(=O)O)cc2)c2cc(Cl)ccc2n1C(c1ccccc1)c1ccccc1"
  UOM: "µg/mL"
  INEQUALITY OPERATOR: "<"
  RECORDED NUMBER: 1
- CHEMICAL SMILES: "COc1ccc2c(c1)c(CC(=O)O)c(C)n2C(=O)c1ccc(Cl)cc1"
  UOM: "µg/mL"
  INEQUALITY OPERATOR: "="
  RECORDED NUMBER: 260
- CHEMICAL SMILES: "O=C(O)CCCCn1nnc(Cc2cn(Cc3ccc(Cl)cc3Cl)c3ccccc23)n1"
  UOM: "µg/mL"
  INEQUALITY OPERATOR: "="
  RECORDED NUMBER: 152
- CHEMICAL SMILES: "O=C(O)CCCCn1nnc(Cc2cn(Cc3ccc(Cl)cc3Cl)c3ccc(Cl)cc23)n1"
  UOM: "µg/mL"
  INEQUALITY OPERATOR: "<"
  RECORDED NUMBER: 1
